Recorded T/C, one value per entry.
tested on: P335 leukemia ip, BDF1 mice, survival T/C %; assay: NCI In Vivo Anticancer Drug Screen. Data for tumor model P335 Leukemia (intraperitoneal) in B6D2F1 (BDF1) mice; settings: endpoint: mean survival time; dose: 250.0 mg/kg/injection; schedule: Q01DX Z (sc); vehicle: steriod suspending solution; higher = longer survival
Inconclusive results and toxic doses are left out.

C[C@]12CCC(=O)C[C@H]1CC[C@@H]1[C@@H]2CC[C@@]2(C)[C@H]1CC[C@]2(C)O :: 109 % of control
C[C@]12CCC(=O)C=C1CC[C@@H]1[C@@H]2CC[C@@]2(C)[C@H]1CC[C@]2(C)O :: 109 % of control
C[C@]12CCC(=O)C=C1CC[C@@H]1[C@@H]2C(=O)C[C@@]2(C)[C@H]1CC[C@]2(O)C(=O)CO :: 94 % of control

I have this molecule here, "CC[C@H](c1ccc(O)cc1)[C@@H](CC)c1ccc(O)cc1" , and I need its recorded T/C.
106 % of control

The measurements presented in this section are drawn from PubChem BioAssay AID224.
